Value source: PubChem BioAssay (NCI)

TGI by entry:
- Tested on: XF 498 CNS
- assay_procedure: NCI tumour cell line growth inhibition, 48 h

compound: CCOC(=O)c1ccc(N[C@@H]2c3cc4c(cc3C(c3cc(OC)c(O)c(OC)c3)[C@H]3C(=O)OCC32)OCO4)cc1O (stereo partly drawn)
TGI: 16.9 µM
//
compound: C[Si](C)(C)OC1CC(=O)OC1n1cc(F)c(=O)[nH]c1=O (stereo not drawn)
TGI: > 100 µM
//
compound: COC(=O)CC1N=C(NC#N)N(CCc2c[nH]c3ccccc23)C1=O (stereo not drawn)
TGI: > 100 µM
//
compound: CCOC(=O)N[C@@H]1C(CC(=O)OC)O[C@H]2OC(C)(C)O[C@H]21 (stereo partly drawn)
TGI: > 100 µM
//
compound: CNC(=S)/N=C(\N)N(C)C
TGI: > 100 µM
//
compound: COc1cc2[nH]c3c(c2cc1OC)CCN[C@]31CC[C@]2(CC3c4c(cc(OC)c(O)c42)CCN3C)C[C@H]1OC (stereo partly drawn)
TGI: 29.8 µM
//
compound: CN=C(SC)N(C)c1nc(=[N+](C)C)ss1
TGI: > 100 µM
//
compound: Nc1nc([O-])c2c(n1)[n+](C1OC(CO)C(O)C1O)cn2CCO (stereo not drawn)
TGI: > 100 µM
//
compound: CCN(CC)C1CC(O[C@H]2C[C@](O)(C(=O)CO)Cc3c(O)c4c(c(O)c32)C(=O)c2c(OC)cccc2C4=O)OC(C)C1O (stereo partly drawn)
TGI: 0.223 µM
//
compound: O=Cc1ccccc1COC(=O)c1cc(C(=O)OCc2ccccc2C=O)c(C(=O)OCc2ccccc2C=O)cc1C(=O)OCc1ccccc1C=O
TGI: > 100 µM
//
compound: COc1ccc2c3c([nH]c2c1[N+](=O)[O-])C(C)N(C)CC3 (stereo not drawn)
TGI: > 100 µM
//
compound: O=c1cc(-c2ccc(Oc3ccccc3)cc2)[nH]c2cc3c(cc12)OCO3
TGI: > 100 µM
//
compound: Nc1ccccc1/C(O)=C1/CCOC1=O
TGI: > 100 µM
